Overview of recorded protein stability index for various sequences
System: Saccharomyces cerevisiae
Assay: protein stability index of tFT-peptide fusion in deletion strain of DAS1 (PSI (0-1 scale)); higher = more stable (slower turnover)
Output: the number by itself.

LQVYLSCVACIN 0.0994

Task: Input VRGAVGAWRLVG , output reported protein stability index.
Output: 0.704

Task: Input PSLAASFMRVVG , output reported protein stability index.
Output: 0.681

Task: Input KKHKQGQKQKIN , output reported protein stability index.
Output: 0.73

----------
Test system: Saccharomyces cerevisiae
Assay: protein stability index of tFT-peptide fusion (C-terminal peptide) (PSI (0-1 scale)); higher = more stable (slower turnover)
Conditions: genetic background: wild type; temperature: 30 C
Overview of recorded protein stability index for various sequences
Output: the number by itself.

// known answers, use as guide
PSLPHLPSTSSC 0.681
KIKTNLRQKTKN 0.654

Task: Input GRGKGNEREVRT , output reported protein stability index.
Output: 0.656

Task: Input CTRTREDPKIGI , output reported protein stability index.
Output: 0.714

Task: Input ISRSLVDHQARP , output reported protein stability index.
Output: 0.695

Task: Input DNQQRQKKKNKK , output reported protein stability index.
Output: 0.65

Task: Input PSGSVLAEGRGP , output reported protein stability index.
Output: 0.678

Data provenance is the supplement of paper PMC10724198.
